I'd be grateful if you could share measured Bliss excess for these entries.
- Test system: NCI-H2066 (Squamous Cell Lung Carcinoma);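 also: after 72 h of two-drug dosing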
- protocol: Bliss excess, mean over the matrix (fraction); higher = more synergy
Answers are plain numbers.

| compound | subject_of_test | Bliss excess |
| --- | --- | --- |
| CC1(C)CCC(CN2CCN(c3ccc(C(=O)NS(=O)(=O)c4ccc(NCC5CCOCC5)c([N+](=O)[O-])c4)c(Oc4cnc5[nH]ccc5c4)c3)CC2)=C(c2ccc(Cl)cc2)C1 [Venetoclax] + CCN(CCO)CCCOc1ccc2c(Nc3cc(CC(=O)Nc4cccc(F)c4)[nH]n3)ncnc2c1 [AZD2811] (first compound max 1 µM, 7x7, partner max 1 µM) | NCI-H2066 (Squamous Cell Lung Carcinoma) | -0.0442 |

**Q:** What reported Bliss excess corresponds to C[C@@H](c1ccc2nccn2c1)n1nnc2ncc(-c3cnn(C)c3)nc21 [Savolitinib] + CC1(C)CCC(CN2CCN(c3ccc(C(=O)NS(=O)(=O)c4ccc(NCC5CCOCC5)c([N+](=O)[O-])c4)c(Oc4cnc5[nH]ccc5c4)c3)CC2)=C(c2ccc(Cl)cc2)C1 [Venetoclax] (first compound max 1 µM, 7x7, partner max 1 µM) on NCI-H2066 (Squamous Cell Lung Carcinoma)?
**A:** -0.0524
